The measurements presented in this section are drawn from PubChem BioAssay AID651658.

- Target under test: Fibroblast growth factor 22 (Homo sapiens) (UniProt Q9HCT0)
- Sequence (Q9HCT0 whole entry, looked up): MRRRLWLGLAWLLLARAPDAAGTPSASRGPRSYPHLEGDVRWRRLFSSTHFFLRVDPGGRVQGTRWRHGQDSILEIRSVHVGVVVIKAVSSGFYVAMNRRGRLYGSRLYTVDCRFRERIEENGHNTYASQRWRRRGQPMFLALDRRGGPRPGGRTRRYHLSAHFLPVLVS
- Experiment: binders of human FGF22 protein, primary screen, FGF22 synaptogenesis inhibitor project, biophysical, thermal shift, single point (AID 651658)
- Test parameters: recombinant FGF22 thermal shift, SYPRO orange fluorescence; at 9.99 µM; active compounds read high; percent of sucrose octasulfate shift, DMSO zero
The whole screen tested about 340,000 compounds, of which about 5,100 (1.5%) were called active. This excerpt belongs to a sample that is enriched for actives.
Measured endpoint: activity (Tm shift, normalised) (%)
Your answer is read as %, so omit the unit and give the number.

# input // fetch activity (Tm shift, normalised); item: `C[C@H](CO)N1C[C@H](C)[C@@H](CN(C)S(=O)(=O)c2cn(C)cn2)Oc2ccc(N(C)C)cc2CC1=O` ; system: Fibroblast growth factor 22 (Homo sapiens) (UniProt Q9HCT0)
# output 0.089

# input // fetch activity (Tm shift, normalised); item: CC1CN(C(=O)COC(=O)c2cccc(NS(=O)(=O)c3ccccc3)c2)CC(C)O1 (stereo not drawn) ; system: Fibroblast growth factor 22 (Homo sapiens) (UniProt Q9HCT0)
# output 43

# input // fetch activity (Tm shift, normalised); item: `COc1ccc(C[C@@H]2CCc3cnnn3COC[C@H](c3ccccc3)NC2=O)cc1` ; system: Fibroblast growth factor 22 (Homo sapiens) (UniProt Q9HCT0)
# output 0.006

# input // fetch activity (Tm shift, normalised); item: CC1CN(C(=O)c2cccc(NS(=O)(=O)c3ccc(Br)cc3)c2)CC(C)O1 (stereo not drawn) ; system: Fibroblast growth factor 22 (Homo sapiens) (UniProt Q9HCT0)
# output 0.103

# input // fetch activity (Tm shift, normalised); item: `COc1ccccc1/C=N/N1CCN(Cc2ccccc2Cl)CC1` ; system: Fibroblast growth factor 22 (Homo sapiens) (UniProt Q9HCT0)
# output -0.025

# input // fetch activity (Tm shift, normalised); item: `O=C(c1ccc(F)cc1)N1CC2(C1)[C@H](c1ccccc1)[C@@H](CO)N2Cc1ccccn1` ; system: Fibroblast growth factor 22 (Homo sapiens) (UniProt Q9HCT0)
# output -0.271

# input // fetch activity (Tm shift, normalised); item: CC(NCC(=O)Nc1cc(Cl)cc(Cl)c1)c1ccccc1 (stereo not drawn) ; system: Fibroblast growth factor 22 (Homo sapiens) (UniProt Q9HCT0)
# output -0.134

# input // fetch activity (Tm shift, normalised); item: `CCCNS(=O)(=O)c1ccc(CCC(=O)N2CCCC2)cc1` ; system: Fibroblast growth factor 22 (Homo sapiens) (UniProt Q9HCT0)
# output 43

# input // fetch activity (Tm shift, normalised); item: `O=C(C[C@H]1C[C@@H]2c3cc(NC(=O)c4cccnc4)ccc3O[C@@H]2[C@H](CO)O1)NCc1ccccn1` ; system: Fibroblast growth factor 22 (Homo sapiens) (UniProt Q9HCT0)
# output -0.175

# input // fetch activity (Tm shift, normalised); item: `C[C@H]1CN([C@@H](C)CO)C(=O)CCCn2nncc2CO[C@H]1CN(C)S(=O)(=O)c1ccccc1C#N` ; system: Fibroblast growth factor 22 (Homo sapiens) (UniProt Q9HCT0)
# output -0.016

# input // fetch activity (Tm shift, normalised); item: `COCC#Cc1ccc2c(c1)O[C@H](CN(C)CC1CC1)[C@H](C)CN([C@H](C)CO)S2(=O)=O` ; system: Fibroblast growth factor 22 (Homo sapiens) (UniProt Q9HCT0)
# output 0.379

# input // fetch activity (Tm shift, normalised); item: `Cc1ccc(CN2CCN(/N=C/c3cccnc3)CC2)c(C)c1` ; system: Fibroblast growth factor 22 (Homo sapiens) (UniProt Q9HCT0)
# output 0.311

# input // fetch activity (Tm shift, normalised); item: Cc1nnc(SC(C(=O)c2ccccc2)c2ccccc2)[nH]c1=O (stereo not drawn) ; system: Fibroblast growth factor 22 (Homo sapiens) (UniProt Q9HCT0)
# output 0.339

# input // fetch activity (Tm shift, normalised); item: `OC[C@@H]1Nc2ccc(-c3ccc(F)cc3)cc2[C@@H]2[C@H]1CCN2Cc1ccc(F)cc1` ; system: Fibroblast growth factor 22 (Homo sapiens) (UniProt Q9HCT0)
# output -0.323

# input // fetch activity (Tm shift, normalised); item: `CCC(=O)Nc1ccc2c(c1)OC[C@H](C)N(C(=O)Cc1cccnc1)C[C@@H](C)[C@@H](OC)CN(C)C2=O` ; system: Fibroblast growth factor 22 (Homo sapiens) (UniProt Q9HCT0)
# output -0.218

# input // fetch activity (Tm shift, normalised); item: `COc1ccc(N2CCN(C(=O)COC(=O)c3cccc(S(=O)(=O)Nc4ccccc4OC)c3)CC2)cc1` ; system: Fibroblast growth factor 22 (Homo sapiens) (UniProt Q9HCT0)
# output -0.159

# input // fetch activity (Tm shift, normalised); item: `COc1cccc(-c2ccc3c(c2)[C@H]2[C@H](CCN2C(=O)c2ccc(F)cc2)[C@@H](CO)N3)c1` ; system: Fibroblast growth factor 22 (Homo sapiens) (UniProt Q9HCT0)
# output -0.166

# input // fetch activity (Tm shift, normalised); item: `O=C(C[C@H]1C[C@H]2c3cc(NC(=O)CC4CC4)ccc3O[C@H]2[C@H](CO)O1)NCc1ccccc1` ; system: Fibroblast growth factor 22 (Homo sapiens) (UniProt Q9HCT0)
# output 0.206

# input // fetch activity (Tm shift, normalised); item: `O=C(C[C@H]1C[C@@H]2c3cc(NC(=O)c4ccc5c(c4)OCO5)ccc3O[C@@H]2[C@@H](CO)O1)NCc1cccnc1` ; system: Fibroblast growth factor 22 (Homo sapiens) (UniProt Q9HCT0)
# output -0.297

# input // fetch activity (Tm shift, normalised); item: `CSc1ccc(/C=N/N2CCN(Cc3ccccc3Cl)CC2)cc1` ; system: Fibroblast growth factor 22 (Homo sapiens) (UniProt Q9HCT0)
# output 43.3

# input // fetch activity (Tm shift, normalised); item: CN(C)C(CNC(=O)Cc1ccc([N+](=O)[O-])cc1)c1ccccc1 (stereo not drawn) ; system: Fibroblast growth factor 22 (Homo sapiens) (UniProt Q9HCT0)
# output 42.9

# input // fetch activity (Tm shift, normalised); item: `CN1C[C@H](O)COC[C@H]2O[C@H](CC(=O)NC3CCC3)CC[C@@H]21` ; system: Fibroblast growth factor 22 (Homo sapiens) (UniProt Q9HCT0)
# output 0.225

# input // fetch activity (Tm shift, normalised); item: `O=C(CCC1CCCCC1)Nc1cc(C(F)(F)F)ccc1N1CCOCC1` ; system: Fibroblast growth factor 22 (Homo sapiens) (UniProt Q9HCT0)
# output -0.247

# input // fetch activity (Tm shift, normalised); item: `COc1ccc(NC(=O)O[C@@H](c2ccc(OCCO)cc2)[C@@H](C)CCO)cc1` ; system: Fibroblast growth factor 22 (Homo sapiens) (UniProt Q9HCT0)
# output -1.48

# input // fetch activity (Tm shift, normalised); item: `CCCNC(=O)N1CC(=O)N2[C@H](CO)[C@H](c3ccc(C#Cc4cccc(OC)c4)cc3)[C@H]2C1` ; system: Fibroblast growth factor 22 (Homo sapiens) (UniProt Q9HCT0)
# output 0.3

# input // fetch activity (Tm shift, normalised); item: `Cc1ccc(NS(=O)(=O)c2ccc(C(=O)NCCCN3CCOCC3)cc2)cc1` ; system: Fibroblast growth factor 22 (Homo sapiens) (UniProt Q9HCT0)
# output -0.45

# input // fetch activity (Tm shift, normalised); item: `CCNS(=O)(=O)c1ccc(CCC(=O)N2CCN(c3ccc(OC)cc3)CC2)cc1` ; system: Fibroblast growth factor 22 (Homo sapiens) (UniProt Q9HCT0)
# output 0.369

# input // fetch activity (Tm shift, normalised); item: `CN(C)CCNC(=O)Cc1ccc([N+](=O)[O-])cc1` ; system: Fibroblast growth factor 22 (Homo sapiens) (UniProt Q9HCT0)
# output 0.505

# input // fetch activity (Tm shift, normalised); item: `Cc1ccc(S(=O)(=O)Nc2ccc(F)c(S(=O)(=O)N3CCOCC3)c2)cc1` ; system: Fibroblast growth factor 22 (Homo sapiens) (UniProt Q9HCT0)
# output 43.3

# input // fetch activity (Tm shift, normalised); item: `O=C(Nc1ccc(C(F)(F)F)cc1)N[C@@H]1CC[C@H](CC(=O)N2CCCCC2)O[C@H]1CO` ; system: Fibroblast growth factor 22 (Homo sapiens) (UniProt Q9HCT0)
# output -0.164

# input // fetch activity (Tm shift, normalised); item: `Cn1c(=O)n(C)c2cc(S(=O)(=O)Nc3ccc(F)cc3)ccc21` ; system: Fibroblast growth factor 22 (Homo sapiens) (UniProt Q9HCT0)
# output -0.198

# input // fetch activity (Tm shift, normalised); item: `C[C@H]1CN([C@@H](C)CO)S(=O)(=O)c2ccc(-c3cccnc3)cc2O[C@H]1CN(C)C(=O)C1CCCCC1` ; system: Fibroblast growth factor 22 (Homo sapiens) (UniProt Q9HCT0)
# output 0.041

# input // fetch activity (Tm shift, normalised); item: `COc1ccc(S(=O)(=O)Nc2ccc3c(c2)C(=O)N([C@H](C)CO)C[C@@H](C)[C@H](CN(C)C(=O)c2ccncc2)OCCCC[C@@H](C)O3)cc1` ; system: Fibroblast growth factor 22 (Homo sapiens) (UniProt Q9HCT0)
# output -0.014

# input // fetch activity (Tm shift, normalised); item: Cc1nnc(SC(C(=O)Nc2cc(Cl)cc(Cl)c2)c2ccccc2)[nH]c1=O (stereo not drawn) ; system: Fibroblast growth factor 22 (Homo sapiens) (UniProt Q9HCT0)
# output 1.39

# input // fetch activity (Tm shift, normalised); item: `Cn1c(=O)n(C)c2cc(NS(=O)(=O)c3ccc(F)cc3)ccc21` ; system: Fibroblast growth factor 22 (Homo sapiens) (UniProt Q9HCT0)
# output 43.1

# input // fetch activity (Tm shift, normalised); item: `O=C(C1CC1)N1CCCCN2[C@H](C1)[C@@H](c1ccc(-c3cccc(F)c3)cc1)[C@@H]2CO` ; system: Fibroblast growth factor 22 (Homo sapiens) (UniProt Q9HCT0)
# output -0.119

# input // fetch activity (Tm shift, normalised); item: CC(Sc1nncn1C)C(=O)Nc1cc(C(F)(F)F)ccc1N1CCOCC1 (stereo not drawn) ; system: Fibroblast growth factor 22 (Homo sapiens) (UniProt Q9HCT0)
# output 43

# input // fetch activity (Tm shift, normalised); item: `Cc1nnc(Nc2ccccc2F)s1` ; system: Fibroblast growth factor 22 (Homo sapiens) (UniProt Q9HCT0)
# output 0.041
